Source: ChEMBL document CHEMBL1201862

# Tested on: CAKI-1
# Procedure Summary: NCI tumour cell line growth inhibition, 48 h
Calls of active or inactive are those of the source. Cut-off read from the data, not from the text of the source: active = GI50 up to about 1.1 µM and inactive = higher. Where a SMILES comes first, the peptide text is derived from it. [ ]: non-standard residue; d: D form. The star is where a group is joined. Octanoyl = CCCCCCCC(=O)*; Aib = CC(C)(N)C(=O)O; tBu = CC(C)(C)*
Exercise: state measured GI50 for each of the compounds provided.

Any idea what GI50 was measured for O=C(CN1CCOCC1)c1ccc2c(c1)oc(=O)n2CCN1CCOCC1 ?
> 100 µM (inactive)

Dear colleague, I am looking for the recorded GI50 of the following compound: O=C1C2=C(c3ccccc31)C(c1ccccc1Cl)N1C(=O)CCSC1=N2 (configuration not stated)
> 100 µM (inactive)

Fill in: GI50 of C1=Cc2nccc3cc4c(c(c23)N1)OCO4 is ___
8.99 µM (inactive)

May I ask what GI50 has been recorded for O=C1NCC(CSc2nc3cc(C4CCCc5c4[nH]c4ccccc54)ccc3o2)N1 (configuration not stated) ?
41.5 µM (inactive)

Reported GI50 for CCCCCCCC(=O)NC(C)(C)C(=O)NC(COC(C)(C)C)C(=O)NC(CC(C)C)C(=O)NC(C)(C)C(=O)NC(COC(C)(C)C)C(=O)NC(COC(C)(C)C)C(=O)NC(CC(C)C)C(=O)NC(C)(C)C(=O)NC(COC(C)(C)C)C(=O)NC(C(=O)NC(CC(C)C)C(=O)OC)C(C)CC (configuration not stated) (Octanoyl-[Aib]S(tBu)L[Aib]S(tBu)S(tBu)L[Aib]S(tBu)IL-OMe; configuration not given here) : what is it?
18.5 µM (inactive)

So what does the record say about GI50 for CC(=O)N1C(Nc2cccc3nc(C)ccc23)CCN1c1ccccc1 (configuration not stated) ?
> 10 µM (inactive)

Quick one: GI50 of CC1(C)C(=O)C(O)=CC2C1=CCC1C2(C)C(=O)CC2(C)C(C(C)(O)C(=O)CC(O)C(C)(C)O)C(O)CC12C (configuration not stated) ?
2.12 µM (inactive)

* * *

Provide the reported GI50 of each item.
# Tested on: SF-295
# Procedure Summary: NCI tumour cell line growth inhibition, 48 h
Active and inactive are the calls of the source. No stated cut-off is given here; in the data, active = GI50 up to about 1.1 µM and inactive = higher.

Entry under review: O=C1OC(c2ccccc2)=N/C1=C/NC(Cc1c[nH]cn1)C(=O)O (stereo unspecified) . Reported GI50?
> 100 µM (inactive)

Which GI50 is listed for C=C1C(=O)OC2C[C@H](C)C3CC(=O)C(C)=C3CC12 (stereo partly specified) ?
25.2 µM (inactive)

Need GI50, item Cc1cccc(C(C)(C)C)c1NC(=O)CC1C(=O)Nc2ccccc2[S+]1[O-] (stereo unspecified)
62.8 µM (inactive)

Could you share which GI50 value was measured for CCCOC(=O)C1C2CCC(O2)C1C(=O)O (stereo unspecified) ?
> 100 µM (inactive)

Name the reported GI50 value associated with the compound NNC(=O)c1c(-c2cccnc2)cnc2ccccc12
> 100 µM (inactive)

Item CCCCCCCC(=O)NS(=O)(=O)c1ccccc1 has what recorded GI50?
> 100 µM (inactive)

* * *

# Test system: M14
# Procedure Summary: NCI tumour cell line growth inhibition, 48 h
Activity calls are given as the source filed them. No stated cut-off is given here; in the data, active = GI50 up to about 1.1 µM and inactive = higher.
Exercise: for every item that follows, state its recorded GI50.

May I ask what GI50 has been recorded for CC(=O)N1C(Nc2cccc3nc(C)ccc23)CCN1c1ccccc1 (centres undefined) ?
> 10 µM (inactive)

Please look up its GI50: Nc1ccccc1/C(O)=C1/CCOC1=O
> 100 µM (inactive)

Return reported GI50; argument: CCC(C)CN1C(=O)NC(C)(Cc2ccccc2)C1=O (centres undefined)
> 100 µM (inactive)

I'd like to know its GI50. The compound in question is O=C1C2=C(c3ccccc31)C(c1ccccc1Cl)N1C(=O)CCSC1=N2 (centres undefined)
> 100 µM (inactive)

Which GI50 is reported for this compound? CCN(CC)C(=S)SC [METHYLDIETHYL CARBAMODITHIOATE]
> 100 µM (inactive)

Any idea what GI50 was measured for CCn1c2ccccc2c2cc(NC(=O)c3c(C)[nH]c(=O)[nH]c3=S)ccc21 ?
24.2 µM (inactive)

What does the data say about its GI50? Entry: COC(=O)[C@H](Cc1ccccc1)NC(=O)[C@H](Cc1ccccc1)NC(=O)[C@@H]1CCCN1C(=O)N[C@H]1C2C=CC(C2)C1C(=O)N1CCC[C@H]1C(=O)N[C@@H](C)C(=O)N[C@H](C(=O)OC)C(C)C (some centres undefined)
> 100 µM (inactive)

Tell me the measured GI50 of CN(C)c1ccc(/C=C2\C[C@H]3[C@@H]4CCc5cc(O)ccc5[C@H]4CC[C@]3(C)C2=O)cc1 , please.
> 100 µM (inactive)

Given the compound CC/C(=C(\c1ccccc1)c1ccc(OCC[N+](C)(C)C)cc1)c1ccccc1 [TAMOXIFEN METHYL IODIDE] , what is its reported GI50?
14.7 µM (inactive)

Given the entry COc1ccc(-c2nc(SCC(=O)N/N=C/c3ccc([N+](=O)[O-])cc3)[nH]c2-c2ccc(OC)cc2)cc1 , report its measured GI50.
12.2 µM (inactive)

Request the reported GI50 associated with CCCCC(C(=O)C(=O)Nc1ccccc1CC)C(=O)C(C)C (centres undefined)
> 100 µM (inactive)

I have this compound here, N#Cc1ncc(C(Cl)Cl)nc1Cl , and I need its recorded GI50.
1.13 µM (inactive)

Item COc1ccc2c(C)c(Oc3c(Cl)c(Cl)c(O)c(C#N)c3C#N)oc2c1 has what recorded GI50?
> 100 µM (inactive)

Fill in: GI50 of Cn1c(=O)cc2[nH]c3ccccc3n2c1=O is ___
72.9 µM (inactive)

Given the compound CCNc1cc2c(cc1O)CC[C@@H]1[C@@H]2CC[C@]2(C)[C@@H](O)CC[C@@H]12 , what is its reported GI50?
1.78 µM (inactive)

// lookup GI50 for Cc1c(C(=O)/C=C/C=C/c2ccccc2)[n+]([O-])c2ccccc2[n+]1[O-]
19.8 µM (inactive)

What GI50 value was documented for this compound, CCOC(=O)C1=C(C)N(Cc2ccc(Cl)cc2Cl)C2(O)C=CC(=O)C3C(=O)N(c4ccccc4)C(=O)C132 (centres undefined) ?
3.27 µM (inactive)

Reported GI50 for O=C1Nc2ccc(S(=O)(=O)O)cc2/C1=N/Nc1ccccc1[N+](=O)[O-] : what is it?
> 100 µM (inactive)

Look up GI50: COc1ccc(Cc2cc3c(cc2OCC(=O)O)OCO3)cc1
> 100 µM (inactive)
